System: HT-29
Assay: Cytotoxicity against human HT-29 cells by MTT assay
Format: functional, cell-based
Listed compounds paired with reported pIC50
Please express pIC50 as -log10 of the molar concentration.

compound="CCOC(OCC)c1ccc(CC2CN(C)CC(Cc3ccc(C(OCC)OCC)cc3)C2=NO)cc1 (configuration not stated)" test_target=HT-29 observed_result=6.40

QUERY: What value of pIC50 has been reported for the following compound? CN1CC(Cc2ccc(N(C)C)cc2[N+](=O)[O-])C(=NO)C(Cc2ccc(N(C)C)cc2[N+](=O)[O-])C1 (configuration not stated)
RESULT: 7.30

----------
Test system: AGS
Assay: Cytotoxicity against human AGS Cells by MTT assay
Type: functional, cell-based
VALUE KIND: IC50 (µM)
Give a bare numeral; the unit µM is implied.

Would you please look over these solved cases?
compound=COc1ccc(/C=C/C(=O)/C(CNc2ccc(S(N)(=O)=O)cc2)=C(O)/C=C/c2ccc(OC)cc2)cc1 unit_descriptor=µM observed_result=11.9
compound="COc1cc(/C=C/C(=O)CC(=O)/C=C/c2ccc(O)c(OC)c2)ccc1O [CURCUMIN]" unit_descriptor=µM observed_result=20.8

Here is the next item to consider.
QUERY: Enter reported IC50 observed with AGS for `COc1cc(/C=C/C(=O)/C(CNc2ccc(S(N)(=O)=O)cc2)=C(O)/C=C/c2ccc(O)c(OC)c2)ccc1O`
RESULT: 10.2
